Tested on: MS2 coat protein
Test: apparent Kd, MS2 coat protein; higher = weaker binding; RNA-MaP array
Details: designed as: ON switch for flavin mononucleotide; no ligand
Reported Endpoint: apparent Kd

> print(dat)
                             input.sequence   result
1  AGAUAAUCUUGGGAUUUCGUACAUGAGGAUCACCCAUGUCCAGAGGAUAUGCAUAGACAGGCAUCGCAGAAGGCUGGUGAACAG  35.4 nM
2  AAAAUACAUGAGGAUCACCCAUGUGCUUUCUAUUCAGGAUAUGGUGGUACAGUGGACAUACCAGAAGGGAAUGAAA  11.1 nM
3  GACGGCUCUAAGGAGGAUAUGGGAAUCAGCACAUGAGGAUCACCCAUGUAAAUGCCUCGGCUGAACCAGAAGGCCUUGGUCAGGAC   380 nM
4  UUGUGGGCGCUUCAGGAUAUCGCAAAAGAAACAUGAGGAUCACCCAUGUGGCCGAAGCAACUGGGCGAGAAGGGAAAGGCCCGAAG  17.3 nM
5  CGUUCCAGGGAGAAGGGCUACAAGAUCUUUCCAGCAGGAUAUCCCAACAUGAGGAUCACCCAUGUAGUCGUGUUAUUGGCUAUA   243 nM
6  AAAACAUGAGGAUCACCCAUGUCCAAAUAAAUACACGGAACUAGAAGGGAAAAUCGAAAUUAAUAUCAGGAUAUAGGCAAAGCA    53 nM
